tested on: Hs-746T (Gastric Carcinoma); assay: combination Emax (second highest fraction inhibited in the dose matrix, 72 h); higher = more inhibition; extreme values may be limits of the assay
# if value of combination Emax reaches 0.3, tag T; if it stays below, tag F

Would you say Cc1c2c(nn1C)CSCc1cc(n(C)n1)CSc1cc(c3ccccc3c1)OCCCc1c(C(=O)O)n(C)c3c-2c(Cl)ccc13 [AZD5991] + C1CN(CCC1(C(=O)N[C@@H](CCO)C2=CC=C(C=C2)Cl)N)C3=NC=NC4=C3C=CN4 [Capivasertib] (first compound max 1 µM, 7x7, partner max 3 µM) shows combination Emax at minimum 0.3?
T

Also check CCc1c2c(nc3ccc(O)cc13)-c1cc3c(c(=O)n1C2)COC(=O)[C@]3(O)CC [SN-38] + CN(C)CCCOc1ccc(-c2ccc3ncc4c(c3c2)n(C2CCOCC2)c(=O)n4C)cn1 [AZD0156] (first compound max 0.3 µM, 7x7, partner max 1 µM)
T

Also check CN(CCO)CC[C@H](CSc1ccccc1)Nc1ccc(S(=O)(=O)NC(=O)c2ccc(N3CCC([C@@H](O)c4ccccc4-c4ccc(Cl)cc4)CC3)cc2)cc1S(=O)(=O)C(F)(F)F [AZD4320] + CCN(CCO)CCCOc1ccc2c(Nc3cc(CC(=O)Nc4cccc(F)c4)[nH]n3)ncnc2c1 [AZD2811] (first compound max 1 µM, 7x7, partner max 1 µM)
T

Also check COc1cc2ncnc(Nc3ccc(F)c(Cl)c3)c2cc1OCCCN1CCOCC1 [Gefitinib] + CC(C)n1c(=O)n(C)c2cnc3cc(F)c(-c4ccc(OCCCN5CCCCC5)nc4)cc3c21 [AZD1390] (first compound max 10 µM, 7x7, partner max 0.3 µM)
F

Also check CC(=O)Nc1cccc(-n2c(=O)n(C3CC3)c(=O)c3c(Nc4ccc(I)cc4F)n(C)c(=O)c(C)c32)c1 [Trametinib] + Cc1nc(-c2cn3c(n2)-c2ccc(-c4cnn(C(C)(C)C(N)=O)c4)cc2OCC3)n(C(C)C)n1 [Taselisib] (first compound max 1 µM, 7x7, partner max 10 µM)
T

----------
system: OVCAR-5 (Ovarian Carcinoma); test: Bliss excess, mean over the matrix (fraction); higher = more synergy;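 also: after 72 h of two-drug dosing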
ENDPOINT LABEL: Bliss excess
Respond numerically, and do not add a unit to the figure.

I'd like to know its Bliss excess. The compound in question is COc1nnc2ccc(N3CCC(c4ccc(OCCN5CCN(C)C(=O)[C@H]5C)cc4)CC3)nn12 [AZD5153] + Cc1c2c(nn1C)CSCc1cc(n(C)n1)CSc1cc(c3ccccc3c1)OCCCc1c(C(=O)O)n(C)c3c-2c(Cl)ccc13 [AZD5991] (first compound max 1 µM, 7x7, partner max 1 µM)
-0.043

Also check Cc1cc2ncnn2cc1Nc1ncc2c(n1)n(C1CCOCC1)c(=O)n2C [AZD7648] + COc1cc([C@@H]2c3cc4c(cc3[C@@H](O[C@@H]3O[C@@H]5CO[C@@H](C)O[C@H]5[C@H](O)[C@H]3O)[C@H]3COC(=O)[C@H]23)OCO4)cc(OC)c1O [Etoposide] (first compound max 10 µM, 7x7, partner max 10 µM)
0.0481

Also check CN(CCO)CC[C@H](CSc1ccccc1)Nc1ccc(S(=O)(=O)NC(=O)c2ccc(N3CCC([C@@H](O)c4ccccc4-c4ccc(Cl)cc4)CC3)cc2)cc1S(=O)(=O)C(F)(F)F [AZD4320] + CCN(CCO)CCCOc1ccc2c(Nc3cc(CC(=O)Nc4cccc(F)c4)[nH]n3)ncnc2c1 [AZD2811] (first compound max 1 µM, 7x7, partner max 1 µM)
-0.0458

Also check O=C(c1cc(Cc2n[nH]c(=O)c3ccccc23)ccc1F)N1CCN(C(=O)C2CC2)CC1 [Olaparib] + COc1nnc2ccc(N3CCC(c4ccc(OCCN5CCN(C)C(=O)[C@H]5C)cc4)CC3)nn12 [AZD5153] (first compound max 10 µM, 7x7, partner max 1 µM)
-0.0584

Also check C[C@@H]1COCCN1c1cc(C2([S@](C)(=N)=O)CC2)nc(-c2ccnc3[nH]ccc23)n1 [AZD6738] + Nc1ccn([C@@H]2O[C@H](CO)[C@@H](O)C2(F)F)c(=O)n1 [Gemcitabine] (first compound max 10 µM, 7x7, partner max 0.3 µM)
-0.0407

Also check CC(=O)c1c(C)c2cnc(Nc3ccc(N4CCNCC4)cn3)nc2n(C2CCCC2)c1=O [Palbociclib] + CC1(C)CCC(CN2CCN(c3ccc(C(=O)NS(=O)(=O)c4ccc(NCC5CCOCC5)c([N+](=O)[O-])c4)c(Oc4cnc5[nH]ccc5c4)c3)CC2)=C(c2ccc(Cl)cc2)C1 [Venetoclax] (first compound max 10 µM, 7x7, partner max 1 µM)
-0.0018
